// provenance: the RNAGym collection of RNA variant scans (doi:10.1073/pnas.2313332121)

B1: TPR 5TU (parent)
chain: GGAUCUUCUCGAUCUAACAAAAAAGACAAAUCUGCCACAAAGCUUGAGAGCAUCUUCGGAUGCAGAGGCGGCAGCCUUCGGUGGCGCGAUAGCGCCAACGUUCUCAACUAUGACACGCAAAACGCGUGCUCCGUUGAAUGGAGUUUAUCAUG

variants of: B1; assay: polymerase ribozyme fitness, log enrichment relative to wild type (log ratio); higher = more active; in vitro selection for triplet polymerase activity
Fewer inactive variants are shown than the library holds.
Experimental Readout: polymerase ribozyme fitness (log ratio)

>  <Variant Descriptor>
G50A C125U

>  <Experimental Readout>
polymerase ribozyme fitness (log ratio)

>  <Result Qualifier>
=

>  <Measured Result>
-1.35

$$$$
>  <Variant Descriptor>
C14G A23C C32U C96U

>  <Experimental Readout>
polymerase ribozyme fitness (log ratio)

>  <Result Qualifier>
=

>  <Measured Result>
-4.1

$$$$
>  <Variant Descriptor>
A21C A137G

>  <Experimental Readout>
polymerase ribozyme fitness (log ratio)

>  <Result Qualifier>
=

>  <Measured Result>
-0.909

$$$$
>  <Variant Descriptor>
A40U G62A C131G G136A

>  <Experimental Readout>
polymerase ribozyme fitness (log ratio)

>  <Result Qualifier>
=

>  <Measured Result>
-3.43

$$$$
>  <Variant Descriptor>
G48C G58C C63A G74C G81A A89U A137C

>  <Experimental Readout>
polymerase ribozyme fitness (log ratio)

>  <Result Qualifier>
≤

>  <Measured Result>
-4.2

$$$$
>  <Variant Descriptor>
C123A

>  <Experimental Readout>
polymerase ribozyme fitness (log ratio)

>  <Result Qualifier>
=

>  <Measured Result>
-0.404

$$$$
>  <Variant Descriptor>
G86U U104G C116A

>  <Experimental Readout>
polymerase ribozyme fitness (log ratio)

>  <Result Qualifier>
=

>  <Measured Result>
-2.52

$$$$
>  <Variant Descriptor>
A24U U55A C87U G92U

>  <Experimental Readout>
polymerase ribozyme fitness (log ratio)

>  <Result Qualifier>
=

>  <Measured Result>
-3.1

$$$$
>  <Variant Descriptor>
U56G C93U

>  <Experimental Readout>
polymerase ribozyme fitness (log ratio)

>  <Result Qualifier>
=

>  <Measured Result>
-3.02

$$$$
>  <Variant Descriptor>
A137C

>  <Experimental Readout>
polymerase ribozyme fitness (log ratio)

>  <Result Qualifier>
=

>  <Measured Result>
-3.09

$$$$
>  <Variant Descriptor>
U55A A91U C96A C125G A142G

>  <Experimental Readout>
polymerase ribozyme fitness (log ratio)

>  <Result Qualifier>
≤

>  <Measured Result>
-4.2

$$$$
>  <Variant Descriptor>
G84C A142G

>  <Experimental Readout>
polymerase ribozyme fitness (log ratio)

>  <Result Qualifier>
=

>  <Measured Result>
-3.03

$$$$
>  <Variant Descriptor>
U61G G136C

>  <Experimental Readout>
polymerase ribozyme fitness (log ratio)

>  <Result Qualifier>
=

>  <Measured Result>
-2.91

$$$$
>  <Variant Descriptor>
C14G U15C C51U G68A G83A U90G C149G

>  <Experimental Readout>
polymerase ribozyme fitness (log ratio)

>  <Result Qualifier>
≤

>  <Measured Result>
-4.2

$$$$
>  <Variant Descriptor>
A24U A28U C79G A91U A97U C116U C132U U135A

>  <Experimental Readout>
polymerase ribozyme fitness (log ratio)

>  <Result Qualifier>
≤

>  <Measured Result>
-4.2

$$$$
>  <Variant Descriptor>
U56A G152U

>  <Experimental Readout>
polymerase ribozyme fitness (log ratio)

>  <Result Qualifier>
=

>  <Measured Result>
-2.37

$$$$
>  <Variant Descriptor>
U13C C93A C96A

>  <Experimental Readout>
polymerase ribozyme fitness (log ratio)

>  <Result Qualifier>
=

>  <Measured Result>
-3.63

$$$$
>  <Variant Descriptor>
U56A A115C

>  <Experimental Readout>
polymerase ribozyme fitness (log ratio)

>  <Result Qualifier>
=

>  <Measured Result>
-0.798

$$$$
>  <Variant Descriptor>
A52U A91U U139G U144A

>  <Experimental Readout>
polymerase ribozyme fitness (log ratio)

>  <Result Qualifier>
≤

>  <Measured Result>
-4.2

$$$$
>  <Variant Descriptor>
U82G C118G

>  <Experimental Readout>
polymerase ribozyme fitness (log ratio)

>  <Result Qualifier>
=

>  <Measured Result>
-1.09

$$$$
>  <Variant Descriptor>
C96U A113G G136C

>  <Experimental Readout>
polymerase ribozyme fitness (log ratio)

>  <Result Qualifier>
=

>  <Measured Result>
-3.93

$$$$
>  <Variant Descriptor>
U44C G59U G92A U135A

>  <Experimental Readout>
polymerase ribozyme fitness (log ratio)

>  <Result Qualifier>
≤

>  <Measured Result>
-4.2

$$$$
